Parameter PDGF Kinase %Inhibition: see the listing below.
# SYSTEM_NAME: PDGF-R (Homo sapiens, UniProt P09619)
# Sequence (P09619 33-1106, species assumed): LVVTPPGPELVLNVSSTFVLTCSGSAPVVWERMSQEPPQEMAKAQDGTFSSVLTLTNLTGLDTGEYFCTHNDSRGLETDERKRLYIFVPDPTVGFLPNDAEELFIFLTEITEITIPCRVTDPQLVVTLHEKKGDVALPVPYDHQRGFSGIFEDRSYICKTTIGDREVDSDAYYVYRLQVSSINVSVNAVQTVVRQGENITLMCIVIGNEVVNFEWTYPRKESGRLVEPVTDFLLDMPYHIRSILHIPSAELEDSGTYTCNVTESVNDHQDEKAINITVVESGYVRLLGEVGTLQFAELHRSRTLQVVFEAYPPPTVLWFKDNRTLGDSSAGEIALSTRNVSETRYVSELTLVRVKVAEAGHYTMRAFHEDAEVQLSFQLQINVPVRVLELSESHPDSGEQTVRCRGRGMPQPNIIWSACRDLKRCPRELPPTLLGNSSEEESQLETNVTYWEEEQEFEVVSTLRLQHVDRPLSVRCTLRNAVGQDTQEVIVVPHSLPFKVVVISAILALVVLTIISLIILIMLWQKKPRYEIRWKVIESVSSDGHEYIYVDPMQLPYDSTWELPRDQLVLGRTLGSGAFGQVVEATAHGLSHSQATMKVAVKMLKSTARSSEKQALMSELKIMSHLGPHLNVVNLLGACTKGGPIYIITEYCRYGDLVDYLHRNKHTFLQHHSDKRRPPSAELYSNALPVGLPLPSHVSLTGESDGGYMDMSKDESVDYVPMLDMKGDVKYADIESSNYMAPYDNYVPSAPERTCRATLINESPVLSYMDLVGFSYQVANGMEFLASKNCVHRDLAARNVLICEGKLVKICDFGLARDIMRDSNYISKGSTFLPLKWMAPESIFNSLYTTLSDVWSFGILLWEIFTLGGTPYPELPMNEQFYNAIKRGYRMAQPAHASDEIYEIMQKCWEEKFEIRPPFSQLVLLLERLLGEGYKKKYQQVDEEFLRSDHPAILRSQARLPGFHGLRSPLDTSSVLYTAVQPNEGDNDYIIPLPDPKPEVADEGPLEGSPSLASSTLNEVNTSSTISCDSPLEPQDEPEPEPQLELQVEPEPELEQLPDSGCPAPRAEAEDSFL
# ASSAY_NOTES: PDGF-R ELISA
# Type: cell-based
Dear colleague, please return just the value in %, with no unit written.

Before answering, review these 5 worked examples.
SMILES_CODE: CSc1ccc(C=C2C(=O)Nc3ccc(Br)c(C)c32)cc1
PDGF Kinase %Inhibition / %: 4.2

SMILES_CODE: O=C1Nc2ccc(I)cc2C1=Cc1cc(Br)ccc1O
PDGF Kinase %Inhibition / %: 7.0

SMILES_CODE: O=C1Nc2ccc(I)cc2C1=Cc1c(Br)cnn1-c1ccc(Cl)cc1
PDGF Kinase %Inhibition / %: 26.0

SMILES_CODE: Cc1cc(C=C2C(=O)Nc3ccc(S(=O)(=O)N4CCOCC4)cc32)cc(C)c1OCc1ccccc1
PDGF Kinase %Inhibition / %: 1.7

SMILES_CODE: COc1ccc(C=C2C(=O)Nc3ccc(S(=O)(=O)N4CCOCC4)cc32)cc1
PDGF Kinase %Inhibition / %: 25.2

PDGF Kinase %Inhibition in this record for CCN(CC)c1ccc(C=C2C(=O)Nc3ccc(I)cc32)c(O)c1 : 56.3

PDGF Kinase %Inhibition in this record for CC(C)(C)c1cc(C=C2C(=O)Nc3ccc(S(=O)(=O)N4CCOCC4)cc32)cc(Cl)c1OCc1ccccc1 : 15.9

PDGF Kinase %Inhibition in this record for O=C1Nc2ccc(F)cc2C1=C1C(=O)Nc2ccc(I)cc21 : 24.6

PDGF Kinase %Inhibition in this record for O=C1Nc2ccc(I)cc2C1=Cc1cc(Cl)cc(Cl)c1O : 13.0

meta.source: patent EP1247803A2
